assay: Dynamic solubility of Form II in mixed solvents, dissolution observed visually; assay type: physicochemical; conditions: volume ratio 1/2, organic solvent or mixture, thermodynamic from solid; MEK/diethyl ether, volume ratio ½; RT; read-out: Solubility
observationType: solubility at 30 min

Ask: # solubility at 30 min lookup, item CC(=O)N1CCC(COc2cc(F)c3c(=O)[nH]c(CSC4CCOCC4)nc3c2)CC1 [Form II]
Reply: < 1000 µg/mL

###

test: Dynamic solubility of Form II in mixed solvents, dissolution observed visually; type: physicochemical; details: organic solvent or mixture, thermodynamic from solid; MeOH/Anisole (1/1); 40° C.
observationType: solubility

Ask: # solubility lookup, item CC(=O)N1CCC(COc2cc(F)c3c(=O)[nH]c(CSC4CCOCC4)nc3c2)CC1 [Form II]
Reply: ~250 mg/mL

###

assay: Dynamic solubility of Form II in single solvents, dissolution observed visually; assay type: physicochemical; conditions: organic solvent or mixture, thermodynamic from solid; Acetone; 22° C.
observationType: solubility (µg/mL)
Provide only the numeric value, understood in µg/mL.

Ask: # solubility lookup, item CC(=O)N1CCC(COc2cc(F)c3c(=O)[nH]c(CSC4CCOCC4)nc3c2)CC1 [Form II]
Reply: 800

###

test: Dynamic solubility of Form II in single solvents, dissolution observed visually; assay type: physicochemical; conditions: organic solvent or mixture, thermodynamic from solid; Acetonitrile (ACN); 22° C.
observationType: solubility (µg/mL)
Provide only the numeric value, understood in µg/mL.

Ask: # solubility lookup, item CC(=O)N1CCC(COc2cc(F)c3c(=O)[nH]c(CSC4CCOCC4)nc3c2)CC1 [Form II]
Reply: 600

###

experiment: Dynamic solubility of Form II in mixed solvents, dissolution observed visually; type: physicochemical; conditions: volume ratio 1/2, organic solvent or mixture, thermodynamic from solid; Ethyl formate/EA, volume ratio ½; RT; read-out: Solubility
observationType: solubility at 30 min

Ask: # solubility at 30 min lookup, item CC(=O)N1CCC(COc2cc(F)c3c(=O)[nH]c(CSC4CCOCC4)nc3c2)CC1 [Form II]
Reply: < 1000 µg/mL

###

assay: Dynamic solubility of Form II in mixed solvents, dissolution observed visually; assay type: physicochemical; conditions: organic solvent or mixture, thermodynamic from solid; MeOH/Anisole/Hept (1/1/6); 25° C.
observationType: solubility

Ask: # solubility lookup, item CC(=O)N1CCC(COc2cc(F)c3c(=O)[nH]c(CSC4CCOCC4)nc3c2)CC1 [Form II]
Reply: < 5000 µg/mL

###

test: Dynamic solubility of Form II in single solvents, dissolution observed visually; format: physicochemical; conditions: organic solvent or mixture, thermodynamic from solid; Isopropyl acetate (IPAc); 22° C.
observationType: solubility

Ask: # solubility lookup, item CC(=O)N1CCC(COc2cc(F)c3c(=O)[nH]c(CSC4CCOCC4)nc3c2)CC1 [Form II]
Reply: < 600 µg/mL

###

Assay: Dynamic solubility of Form II in single solvents, dissolution observed visually
Type: physicochemical
Conditions: thermodynamic from solid; Water; 22° C.
Procedure: An appropriate amount of Form II was weighed into a sample vial and then the indicated solvent was added gradually until all the solid was dissolved at RT. The dissolution was observed visually.
observationType: solubility

Ask: # solubility lookup, item CC(=O)N1CCC(COc2cc(F)c3c(=O)[nH]c(CSC4CCOCC4)nc3c2)CC1 [Form II]
Reply: < 600 µg/mL

###

experiment: Dynamic solubility of Form II in mixed solvents, dissolution observed visually; assay type: physicochemical; details: volume ratio 1/2, organic solvent or mixture, thermodynamic from solid; MeOH/n-BuOH, volume ratio ½; RT; read-out: Solubility
observationType: solubility at 30 min

Ask: # solubility at 30 min lookup, item CC(=O)N1CCC(COc2cc(F)c3c(=O)[nH]c(CSC4CCOCC4)nc3c2)CC1 [Form II]
Reply: < 3000 µg/mL

###

assay: Dynamic solubility of Form II in single solvents, dissolution observed visually; type: physicochemical; conditions: organic solvent or mixture, thermodynamic from solid; 2-Me-THF; 22° C.
observationType: solubility (µg/mL)
Provide only the numeric value, understood in µg/mL.

Ask: # solubility lookup, item CC(=O)N1CCC(COc2cc(F)c3c(=O)[nH]c(CSC4CCOCC4)nc3c2)CC1 [Form II]
Reply: 700

###

experiment: Dynamic solubility of Form II in mixed solvents, dissolution observed visually; type: physicochemical; details: volume ratio 1/2, organic solvent or mixture, thermodynamic from solid; Ethyl formate/IPA, volume ratio ½; RT; read-out: Solubility
observationType: solubility at 30 min

Ask: # solubility at 30 min lookup, item CC(=O)N1CCC(COc2cc(F)c3c(=O)[nH]c(CSC4CCOCC4)nc3c2)CC1 [Form II]
Reply: < 2000 µg/mL

###

test: Dynamic solubility of Form II in single solvents, dissolution observed visually; assay type: physicochemical; conditions: organic solvent or mixture, thermodynamic from solid; Ethyl acetate (EA); 22° C.
observationType: solubility

Ask: # solubility lookup, item CC(=O)N1CCC(COc2cc(F)c3c(=O)[nH]c(CSC4CCOCC4)nc3c2)CC1 [Form II]
Reply: < 0.6 mg/mL

###

assay: Dynamic solubility of Form II in mixed solvents, dissolution observed visually; type: physicochemical; settings: organic solvent or mixture, thermodynamic from solid; MeOH/water (9/1); 0° C.
observationType: solubility

Ask: # solubility lookup, item CC(=O)N1CCC(COc2cc(F)c3c(=O)[nH]c(CSC4CCOCC4)nc3c2)CC1 [Form II]
Reply: 6000 to 10000 µg/mL

###

experiment: Dynamic solubility of Form II in single solvents, dissolution observed visually; assay type: physicochemical; details: organic solvent or mixture, thermodynamic from solid; Acetic acid; 22° C.
observationType: solubility

Ask: # solubility lookup, item CC(=O)N1CCC(COc2cc(F)c3c(=O)[nH]c(CSC4CCOCC4)nc3c2)CC1 [Form II]
Reply: > 167 mg/mL

###

experiment: Dynamic solubility of Form II in mixed solvents, dissolution observed visually; assay type: physicochemical; conditions: volume ratio 1/2, organic solvent or mixture, thermodynamic from solid; MEK/EA, volume ratio ½; RT; read-out: Solubility
observationType: solubility at 30 min

Ask: # solubility at 30 min lookup, item CC(=O)N1CCC(COc2cc(F)c3c(=O)[nH]c(CSC4CCOCC4)nc3c2)CC1 [Form II]
Reply: < 1000 µg/mL

###

assay: Dynamic solubility of Form II in single solvents, dissolution observed visually; format: physicochemical; conditions: organic solvent or mixture, thermodynamic from solid; Toluene (Tol); 22° C.
observationType: solubility

Ask: # solubility lookup, item CC(=O)N1CCC(COc2cc(F)c3c(=O)[nH]c(CSC4CCOCC4)nc3c2)CC1 [Form II]
Reply: < 600 µg/mL

###

test: Dynamic solubility of Form II in mixed solvents, dissolution observed visually; assay type: physicochemical; details: organic solvent or mixture, thermodynamic from solid; MeOH/Anisole, volume ratio 1/1; RT; read-out: Solubility
observationType: solubility at 30 min

Ask: # solubility at 30 min lookup, item CC(=O)N1CCC(COc2cc(F)c3c(=O)[nH]c(CSC4CCOCC4)nc3c2)CC1 [Form II]
Reply: 150 to 160 mg/mL

###

assay: Dynamic solubility of Form II in single solvents, dissolution observed visually; assay type: physicochemical; conditions: organic solvent or mixture, thermodynamic from solid; Methanol (MeOH); 22° C.
observationType: solubility (µg/mL)
Provide only the numeric value, understood in µg/mL.

Ask: # solubility lookup, item CC(=O)N1CCC(COc2cc(F)c3c(=O)[nH]c(CSC4CCOCC4)nc3c2)CC1 [Form II]
Reply: 8300

###

test: Dynamic solubility of Form II in mixed solvents, dissolution observed visually; format: physicochemical; conditions: organic solvent or mixture, thermodynamic from solid; MeOH/Anisole (1/1); 25° C.
observationType: solubility

Ask: # solubility lookup, item CC(=O)N1CCC(COc2cc(F)c3c(=O)[nH]c(CSC4CCOCC4)nc3c2)CC1 [Form II]
Reply: 163 to 176 mg/mL

###

test: Dynamic solubility of Form II in mixed solvents, dissolution observed visually; assay type: physicochemical; conditions: organic solvent or mixture, thermodynamic from solid; MeOH/water (7/3); 60° C.
observationType: solubility

Ask: # solubility lookup, item CC(=O)N1CCC(COc2cc(F)c3c(=O)[nH]c(CSC4CCOCC4)nc3c2)CC1 [Form II]
Reply: ~125 mg/mL

###

test: Preliminary solubility of Compound 1 Form I, visual assessment; format: physicochemical; details: organic solvent or mixture, thermodynamic from solid; Isopropyl alcohol (IPA); estimated via visual assessment
observationType: solubility

Ask: # solubility lookup, item CC(=O)N1CCC(COc2cc(F)c3c(=O)[nH]c(CSC4CCOCC4)nc3c2)CC1 [Form I]
Reply: < 0.6 mg/mL

###

assay: Preliminary solubility of Compound 1 Form I, visual assessment; format: physicochemical; conditions: thermodynamic from solid; Water; estimated via visual assessment
observationType: solubility

Ask: # solubility lookup, item CC(=O)N1CCC(COc2cc(F)c3c(=O)[nH]c(CSC4CCOCC4)nc3c2)CC1 [Form I]
Reply: < 600 µg/mL
